IC50 for assorted compounds
- Test system: PC3
- assayDetails: PC3 proliferation (Alamar Blue)
- Type: cell-based
- measurementSetup: Homo sapiens, PC-3; PC3 cells

Example results:
- smilesRepr: "Nc1nc2cc(-c3ccc4ncc(C(=O)N5CC(F)(F)C5)n4c3)ccc2o1"
  system: "PC3"
  recordedResult: "< 1000 nM"
- smilesRepr: "Nc1nc2cc(-c3ccc4ncc(C(=O)N5CC(N6CC[C@@H](O)C6)C5)n4c3)ccc2o1"
  system: "PC3"
  recordedResult: "< 10000 nM"
- smilesRepr: "O=C(c1cnc2ccc(-c3cnc(Cl)c(NS(=O)(=O)c4ccc(F)cc4)c3)cn12)N1CCOCC1"
  system: "PC3"
  recordedResult: "< 1000 nM"
- smilesRepr: "C[C@H]1CN(C2CN(C(=O)c3cnc4ccc(-c5ccc6oc(N)nc6c5)cn34)C2)CCN1"
  system: "PC3"
  recordedResult: "< 10000 nM"
- smilesRepr: "CC(C)N1CCC(n2cnc3ccc(-c4cnc(Cl)c(NS(C)(=O)=O)c4)cc3c2=O)CC1"
  system: "PC3"
  recordedResult: "< 10000 nM"
- smilesRepr: "COc1ncc(-c2ccc3ncn(C4CCN(C(C)C)CC4)c(=O)c3c2)cc1NS(=O)(=O)c1ccccc1"
  system: "PC3"
  recordedResult: "< 1000 nM"
- smilesRepr: "C[C@@H]1CN(C2CN(C(=O)c3cnc4ccc(-c5ccc6oc(N)nc6c5)cn34)C2)CCN1"
  system: "PC3"
  recordedResult: "< 10000 nM"

Switching to the query record.
Record COC1CN(C(=O)c2cnc3ccc(-c4ccc5oc(N)nc5c4)cn23)C1 / PC3, IC50 recorded as < 1000 nM

These entries and their values trace back to patent US9295673B2.
